Entries and their nonsense suppression
B1: tRNA (parent)
chain: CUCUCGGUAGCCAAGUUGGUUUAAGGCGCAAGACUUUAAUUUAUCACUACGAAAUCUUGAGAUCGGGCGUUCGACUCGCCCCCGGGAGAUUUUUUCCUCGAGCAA

variants of: B1; assay: nonsense suppression (GFP-seq) (ratio to wild type); higher = more function; SUP4oc tRNA, yeast GFP reporter sort-seq
Variants at the floor of the assay were thinned out.

Use these answered entries as a reference point.
G32C A62U G65C C80A G88A
≤ 0.026
G19U U55G
≤ 0.026
G32U C79A
≤ 0.026
G25C C34A A87G
≤ 0.026
U2A G19C
≤ 0.026
U57C G66U C81A
≤ 0.026

[Q] GET /values?readout=nonsense suppression&item= A31G C77A
[A] ≤ 0.026

[Q] GET /values?readout=nonsense suppression&item= G6A A24G C27A C29G
[A] ≤ 0.026

[Q] GET /values?readout=nonsense suppression&item= U21G A33U U57C U58A A89G
[A] ≤ 0.026

[Q] GET /values?readout=nonsense suppression&item= U76C G78A
[A] 0.0382

[Q] GET /values?readout=nonsense suppression&item= A33U G85A
[A] 0.0389

[Q] GET /values?readout=nonsense suppression&item= U55G U63G U71C G88A
[A] ≤ 0.026

[Q] GET /values?readout=nonsense suppression&item= C1A G19C A31G A60U U71A C72G G84U
[A] ≤ 0.026

[Q] GET /values?readout=nonsense suppression&item= A24C U63C
[A] 0.205

[Q] GET /values?readout=nonsense suppression&item= G26U A31C G65C
[A] ≤ 0.026

[Q] GET /values?readout=nonsense suppression&item= G61A U76G
[A] 0.0268

[Q] GET /values?readout=nonsense suppression&item= G10C G15C U20G
[A] ≤ 0.026
